Just for reference, patent EP3375430A1 is where these values come from.

# experimental_protocol: Amount of fragrance ingredients retained on paper blotter after evaporation (ethanol extraction, GC-MS)
# Assay type: physicochemical
# measurement_setup: Table 9; fragrance COM1 in C5; T0 + 480 min
measured_property: amount of fragrance ingredient retained on blotter (percentage of the initial amount) (%)
Give a bare numeral; the unit % is implied.

- molecule: "CC1(C)CCC[C@]2(C)[C@H]3CCO[C@]3(C)CC[C@@H]12 [Ambroxan™]"
  readout_number: 68.9

Q: # input molecule: CC=CC(=O)C1=C(C)CCCC1(C)C [Damascone beta] ; wanted: its amount of fragrance ingredient retained on blotter (percentage of the initial amount)
A: 20.5

Q: Data request, read-out amount of fragrance ingredient retained on blotter (percentage of the initial amount), for C=CC(C)(O)CCC=C(C)CC (mixture of isomers) [Ethyl Linalool, Ethyl linalool]
A: 8.4

Q: So what does the record say about amount of fragrance ingredient retained on blotter (percentage of the initial amount) for CC(=O)OC1CCCCC1C(C)(C)C (centres unmarked) [Verdox™, (2-tert-butylcyclohexyl) acetate] ?
A: 1.9

Q: # lookup: amount of fragrance ingredient retained on blotter (percentage of the initial amount) of CC(C=O)Cc1ccc(C(C)C)cc1 (centres unmarked) [Cyclamen aldehyde]
A: 45.2

Q: Form field: reported amount of fragrance ingredient retained on blotter (percentage of the initial amount) of CC(C)(C)c1ccc(CCC=O)cc1 [Bourgeonal™, 3-(4-tert-butylphenyl)propanal]
A: 59.8

Q: // lookup amount of fragrance ingredient retained on blotter (percentage of the initial amount) for CC/C=C(\C)C(O)CCCCC (centres unmarked) [Undecavertol™, (E)-4-methyldec-3-en-5-ol]
A: 19.1

###

# experimental_protocol: Amount of fragrance ingredients retained on paper blotter after evaporation (ethanol extraction, GC-MS)
# Assay type: physicochemical
# measurement_setup: Table 3; fragrance TAK in EdT1; 480 min; 32°C
Property: amount of fragrance ingredient retained on blotter (percentage of the initial amount); scope: individual compounds
Output spec: scalar in %, unitless text.

Examples from the recorded data:
- compound: "CC(C=O)Cc1ccc(C(C)(C)C)cc1 (centres unmarked)"
  readout_number: 23
- compound: "O=C1CCCCCCCCCCCC(=O)OCCO1 [Ethylene Brassylate]"
  readout_number: 100
- compound: "CC/C=C\\CCOC(=O)c1ccccc1O [Cis 3-hexenyl salicylate, Cis-3-hexenyl salicylate]"
  readout_number: 32

Switching to the query record.
Q: // amount of fragrance ingredient retained on blotter (percentage of the initial amount) lookup, key: CC(=O)OC1CCCCC1C(C)(C)C (centres unmarked) [Verdox™, (2-tert-butylcyclohexyl) acetate]
A: 1

###

Catalogue of amount of fragrance ingredient retained on blotter (percentage of the initial amount) values
# experimental_protocol: Amount of fragrance ingredients retained on paper blotter after evaporation (ethanol extraction, GC-MS)
# Type: physicochemical
# measurement_setup: Table 3; fragrance TAK in EdT1; 240 min; 32°C
# Experimental: A fragrance (hereafter fragrance TAK, the formulation of which is shown in table 1) was formulated in a typical Eau de Toilette (EdT1) or in fragrance compositions according to the invention (compositions C1 to C4), as shown in table 2. The amount of individual fragrance ingredients retained on paper substrate (blotter) after set time periods was assessed by the following method. […]

- molecule: "CC/C=C\\CCOC(=O)c1ccccc1O [Cis 3-hexenyl salicylate, Cis-3-hexenyl salicylate]"
  result: "80%"
- molecule: "C=C(C)[C@H]1CC=C(C)CC1 [Limonene]"
  result: "<1%"
- molecule: "C=CC(C)(CCC=C(C)C)OC(C)=O (centres unmarked) [Linalyl acetate]"
  result: "2%"
- molecule: "CC(=O)OC1CCCCC1C(C)(C)C (centres unmarked) [Verdox™, (2-tert-butylcyclohexyl) acetate]"
  result: "<1%"

Q: // query amount of fragrance ingredient retained on blotter (percentage of the initial amount) value for entry C=CC(C)(O)CCC=C(C)C (centres unmarked) [Linalool]
A: 1%

Q: Which measured amount of fragrance ingredient retained on blotter (percentage of the initial amount) value corresponds to CC(C=O)Cc1ccc(C(C)(C)C)cc1 (centres unmarked) [Lilial™, 3-(4-tert-Butylphenyl)-2-methylpropanal] ?
A: 65%

Q: # get_value(readout='amount of fragrance ingredient retained on blotter (percentage of the initial amount)', item= O=C1CCCCCCCCCCCC(=O)OCCO1 [Ethylene Brassylate] )
A: 98%

Q: State the recorded amount of fragrance ingredient retained on blotter (percentage of the initial amount) for this entry: CCCCCCOC(C)=O [Hexyl acetate, Hexyl Acetate]
A: 1%
